Test system: AR mRNA
procedure.summary: Dose-dependent antisense inhibition of human AR in HuVEC cells (electroporation, qRT-PCR RTS3559, IC50)
Format: cell-based
test.conditions: Table 31; 3000.0 nM, HuVEC, electroporation, approximately 16 hours
Oligonucleotides are written 5' to 3', each unit as a sugar letter and its base; * is a phosphorothioate linkage, no mark a phosphodiester; rarer units and linkages stand in square brackets, end groups in braces. Plain capitals give the bases only. k = constrained ethyl (cEt); [5mC] = 5-methylcytosine; d = 2'-deoxy (DNA)
Parameter percent inhibition of AR, 3000.0 nM: see the listing below.
measured.endpoint: percent inhibition of AR, 3000.0 nM (%)

>>> obs_value("583809 (antisense kT*kG*kT*d[5mC]*d[5mC]*dT*dT*dG*dG*dA*dG*dG*dA*kA*kG*kT) [compound 583809]")
81
>>> obs_value("549372 (kA*kA*kG*dT*dT*dG*dT*dA*dG*dT*dA*dG*dT*k[5mC]*kG*k[5mC]) [compound 549372]")
88
>>> obs_value("583693 (antisense k[5mC]*kT*kG*dT*dG*dA*dT*dG*dA*dT*dG*d[5mC]*dG*kG*kT*kA) [compound 583693]")
80
>>> obs_value("583719 (antisense kG*kT*kA*dG*dG*dT*d[5mC]*dT*dT*dG*dG*dA*d[5mC]*kG*kG*k[5mC]) [compound 583719]")
72
>>> obs_value("583790 (antisense kG*kT*kT*dG*d[5mC]*dA*dT*dG*dG*dT*dG*d[5mC]*dT*kG*kG*k[5mC]) [compound 583790]")
81
>>> obs_value("583714 (antisense kT*k[5mC]*k[5mC]*dA*dT*d[5mC]*d[5mC]*dT*dT*dG*dA*dG*d[5mC]*kT*kT*kG) [compound 583714]")
79

====

test.conditions: cynomolgus monkey, in vivo, sc, 40 mg/kg
measured.endpoint: Urine protein/creatinine ratio

>>> obs_value("TTGATTTAATGGTTGC [ISIS 579671] (cEt/MOE gapmer chemistry, further chemistry not given here)")
0.00
>>> obs_value("ISIS 584163: antisense compound targeted to human AR (GAACATTATTAGGCTA; 3-10-3 (S)-cEt gapmer, further chemistry not given here)")
0.01
>>> obs_value("GATTTAATGGTTGCAA (cEt gapmer chemistry, further chemistry not given here) [ISIS 586124]")
0.01
>>> obs_value("ISIS 583918: antisense compound targeted to human AR (AGTCGCGACTCTGGTA; 3-10-3 (S)-cEt gapmer, further chemistry not given here)")
0.01
>>> obs_value("ISIS 584149: antisense compound targeted to human AR (GTCAATATCAAAGCAC; 3-10-3 (S)-cEt gapmer, further chemistry not given here)")
0.01
>>> obs_value("ISIS 584468: antisense compound targeted to human AR (CATTGTACTATGCCAG; 3-10-3 (S)-cEt gapmer, further chemistry not given here)")
0.00
>>> obs_value("TTGATTTAATGGTTGC [ISIS 560131] (MOE and (S)-cEt gapmer chemistry, further chemistry not given here)")
0.02
>>> obs_value("ISIS 584269: antisense compound targeted to human AR (CCTTATGGATGCTGCT; 3-10-3 (S)-cEt gapmer, further chemistry not given here)")
0.00

====

Parameter % inhibition: see the listing below.
Tested on: AR mRNA
procedure.summary: Antisense inhibition of human AR in HuVEC cells, single concentration (electroporation, qRT-PCR RTS3559)
Format: cell-based
test.conditions: 500 nM ASO, ~24 h, Table 18
Oligonucleotides are written 5' to 3', each unit as a sugar letter and its base; * is a phosphorothioate linkage, no mark a phosphodiester; rarer units and linkages stand in square brackets, end groups in braces. Plain capitals give the bases only. k = constrained ethyl (cEt); [5mC] = 5-methylcytosine; d = 2'-deoxy (DNA)
measured.endpoint: % inhibition (%)

>>> obs_value("583734 (antisense kT*k[5mC]*kA*d[5mC]*dT*dT*d[5mC]*dG*d[5mC]*dG*d[5mC]*dA*d[5mC]*kG*k[5mC]*kT) [compound 583734]")
46
>>> obs_value("583692 (antisense kG*kT*kG*dA*dT*dG*dA*dT*dG*d[5mC]*dG*dG*dT*kA*kG*kT) [compound 583692]")
41
>>> obs_value("583689 (antisense kA*kT*kG*d[5mC]*dG*dG*dT*dA*dG*dT*d[5mC]*dG*d[5mC]*kT*kG*k[5mC]) [compound 583689]")
39
>>> obs_value("583738 (antisense kG*kT*kT*d[5mC]*dT*dG*dG*dA*dT*d[5mC]*dA*d[5mC]*dT*kT*k[5mC]*kG) [compound 583738]")
36
>>> obs_value("583745 (antisense k[5mC]*kG*k[5mC]*dT*d[5mC]*dG*d[5mC]*dG*dG*d[5mC]*d[5mC]*dT*d[5mC]*kT*kG*kG) [compound 583745]")
40
>>> obs_value("583746 (antisense kT*kG*k[5mC]*dG*d[5mC]*dT*d[5mC]*dG*d[5mC]*dG*dG*d[5mC]*d[5mC]*kT*k[5mC]*kT) [compound 583746]")
32

====

System: AR mRNA
procedure.summary: Dose-dependent antisense inhibition of human AR in HuVEC cells (electroporation, qRT-PCR RTS3559, IC50)
Type: cell-based
test.conditions: Table 31; 750.0 nM, HuVEC, electroporation, approximately 16 hours
Oligonucleotides are written 5' to 3', each unit as a sugar letter and its base; * is a phosphorothioate linkage, no mark a phosphodiester; rarer units and linkages stand in square brackets, end groups in braces. Plain capitals give the bases only. k = constrained ethyl (cEt); [5mC] = 5-methylcytosine; d = 2'-deoxy (DNA)
measured.endpoint: percent inhibition of AR, 750.0 nM (%)

>>> obs_value("583795 (antisense kT*kG*k[5mC]*dT*dG*dT*dT*dG*d[5mC]*dT*dG*dA*dA*kG*kG*kA) [compound 583795]")
83
>>> obs_value("583713 (antisense kA*kT*k[5mC]*d[5mC]*dT*dT*dG*dA*dG*d[5mC]*dT*dT*dG*kG*k[5mC]*kT) [compound 583713]")
67
>>> obs_value("583789 (antisense kT*kG*k[5mC]*dA*dT*dG*dG*dT*dG*d[5mC]*dT*dG*dG*k[5mC]*k[5mC]*kT) [compound 583789]")
71
>>> obs_value("583821 (k[5mC]*kA*kG*dA*dA*dA*dT*dG*dG*dT*d[5mC]*dG*dA*kA*kG*kT) [compound 583821]")
61
>>> obs_value("583790 (antisense kG*kT*kT*dG*d[5mC]*dA*dT*dG*dG*dT*dG*d[5mC]*dT*kG*kG*k[5mC]) [compound 583790]")
65
>>> obs_value("583719 (antisense kG*kT*kA*dG*dG*dT*d[5mC]*dT*dT*dG*dG*dA*d[5mC]*kG*kG*k[5mC]) [compound 583719]")
65
>>> obs_value("583700 (antisense kG*kA*kA*dG*dA*dG*dT*dT*d[5mC]*dA*dA*d[5mC]*dA*kG*kG*k[5mC]) [compound 583700]")
57
>>> obs_value("549372 (kA*kA*kG*dT*dT*dG*dT*dA*dG*dT*dA*dG*dT*k[5mC]*kG*k[5mC]) [compound 549372]")
69

====

Parameter percent inhibition of AR, 3000.0 nM: see the listing below.
Test system: AR mRNA
procedure.summary: Dose-dependent antisense inhibition of human AR in HuVEC cells (electroporation, qRT-PCR RTS3559, IC50)
Format: cell-based
test.conditions: Table 34; 3000.0 nM, HuVEC, electroporation, approximately 16 hours
Oligonucleotides are written 5' to 3', each unit as a sugar letter and its base; * is a phosphorothioate linkage, no mark a phosphodiester; rarer units and linkages stand in square brackets, end groups in braces. Plain capitals give the bases only. k = constrained ethyl (cEt); [5mC] = 5-methylcytosine; d = 2'-deoxy (DNA)
measured.endpoint: percent inhibition of AR, 3000.0 nM (%)

>>> obs_value("584139 (kT*k[5mC]*kT*dA*dA*dA*d[5mC]*dA*dT*dG*dA*d[5mC]*dG*kG*kT*kT; antisense) [compound 584139]")
85
>>> obs_value("584006 (kA*k[5mC]*kA*d[5mC]*dA*dA*dG*dT*dG*dG*dG*dA*d[5mC]*kT*kG*kG; antisense) [compound 584006]")
88
>>> obs_value("584128 (kA*kT*kT*d[5mC]*dT*dT*dG*dA*d[5mC]*dT*dG*dT*d[5mC]*kT*kG*kA; antisense) [compound 584128]")
72
>>> obs_value("584069 (k[5mC]*kA*kG*dA*dG*dT*d[5mC]*dA*dT*d[5mC]*d[5mC]*d[5mC]*dT*kG*k[5mC]*kT; antisense) [compound 584069]")
82
>>> obs_value("583933 (k[5mC]*kA*kG*d[5mC]*dG*dG*dG*dT*dT*d[5mC]*dT*d[5mC]*d[5mC]*kA*kG*k[5mC]; antisense) [compound 583933]")
81
>>> obs_value("583990 (kA*k[5mC]*kA*d[5mC]*dA*dT*d[5mC]*dA*dG*dG*dT*dG*d[5mC]*kG*kG*kT; antisense) [compound 583990]")
56

Origin of the recorded values: patent USRE48461E1
